Measured values drawn from patent US20240309103A1 for this set.

Answer each item with its documented t½.
Target: T1, mfNPR1-mFc:hBNP complex (monkey; human, UniProt P16860 103-134)
T1 construct: Receptor-Fc pre-complexed with 10-fold hBNP
Assay: SPR Biacore, mAb captured by anti-human Fc, 37C
The figure you give is taken to be in h; do not add the unit.

What measured t½ goes with mAb25479 (antibody, human IgG4, V domains shown) VH: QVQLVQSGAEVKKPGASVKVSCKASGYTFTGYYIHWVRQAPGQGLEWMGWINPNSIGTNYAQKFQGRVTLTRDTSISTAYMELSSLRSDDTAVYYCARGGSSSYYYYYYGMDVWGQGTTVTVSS VL: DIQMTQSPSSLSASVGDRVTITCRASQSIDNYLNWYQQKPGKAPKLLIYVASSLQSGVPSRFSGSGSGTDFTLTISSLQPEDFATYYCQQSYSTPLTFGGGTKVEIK ?
0.657

What measured t½ goes with mAb25508 (antibody, human IgG4, V domains shown) VH: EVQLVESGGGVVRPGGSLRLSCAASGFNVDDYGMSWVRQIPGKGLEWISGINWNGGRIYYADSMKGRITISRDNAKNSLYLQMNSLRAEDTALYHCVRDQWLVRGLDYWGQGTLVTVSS VL: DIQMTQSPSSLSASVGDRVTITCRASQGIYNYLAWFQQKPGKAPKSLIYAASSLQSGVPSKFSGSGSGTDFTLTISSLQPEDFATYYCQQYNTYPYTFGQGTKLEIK ?
1.28

What measured t½ goes with mAb25491 (antibody, human IgG4, V domains shown) VH: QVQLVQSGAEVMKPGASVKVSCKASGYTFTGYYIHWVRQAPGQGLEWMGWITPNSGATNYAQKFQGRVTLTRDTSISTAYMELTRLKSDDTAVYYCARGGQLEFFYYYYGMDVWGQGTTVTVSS VL: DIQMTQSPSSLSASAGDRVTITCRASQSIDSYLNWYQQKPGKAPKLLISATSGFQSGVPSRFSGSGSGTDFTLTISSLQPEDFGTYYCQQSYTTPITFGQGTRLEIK ?
1.75

What measured t½ goes with mAb25497 (antibody, human IgG4, V domains shown) VH: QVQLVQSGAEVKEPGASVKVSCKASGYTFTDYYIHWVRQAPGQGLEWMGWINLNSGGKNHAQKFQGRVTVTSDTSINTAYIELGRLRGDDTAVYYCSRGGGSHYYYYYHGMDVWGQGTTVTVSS VL: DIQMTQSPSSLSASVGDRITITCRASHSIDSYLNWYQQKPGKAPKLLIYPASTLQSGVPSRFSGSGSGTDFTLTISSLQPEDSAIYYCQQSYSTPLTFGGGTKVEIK ?
1.16

What measured t½ goes with mAb22805 (antibody, human IgG4, V domains shown) VH: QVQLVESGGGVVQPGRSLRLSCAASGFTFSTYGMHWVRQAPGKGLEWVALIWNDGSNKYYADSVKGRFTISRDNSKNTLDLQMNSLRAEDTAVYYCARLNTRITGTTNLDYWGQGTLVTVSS VL: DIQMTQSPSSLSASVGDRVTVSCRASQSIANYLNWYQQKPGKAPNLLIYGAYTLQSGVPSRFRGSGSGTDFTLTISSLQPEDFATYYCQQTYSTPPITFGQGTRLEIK ?
0.953

What measured t½ goes with mAb22033 (antibody, human IgG4, V domains shown) VH: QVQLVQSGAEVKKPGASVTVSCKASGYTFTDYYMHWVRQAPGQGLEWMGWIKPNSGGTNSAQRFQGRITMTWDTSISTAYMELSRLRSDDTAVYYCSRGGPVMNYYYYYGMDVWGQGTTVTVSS VL: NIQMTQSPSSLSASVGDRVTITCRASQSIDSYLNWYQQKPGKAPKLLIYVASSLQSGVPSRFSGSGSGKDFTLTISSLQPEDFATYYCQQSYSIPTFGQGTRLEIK ?
2.19

What measured t½ goes with mAb25502 (antibody, human IgG4, V domains shown) VH: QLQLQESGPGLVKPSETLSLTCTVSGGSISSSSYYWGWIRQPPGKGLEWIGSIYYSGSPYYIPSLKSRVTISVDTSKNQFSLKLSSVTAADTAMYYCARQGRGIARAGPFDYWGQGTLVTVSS VL: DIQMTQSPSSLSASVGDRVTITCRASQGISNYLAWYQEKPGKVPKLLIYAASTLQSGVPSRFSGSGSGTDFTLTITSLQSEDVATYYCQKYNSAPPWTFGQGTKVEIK ?
0.4
